# test system: T1, Polyhistidine-tagged recombinant human UCH-L1 expressed from E. coli (human, UniProt P09936 1-223, limits assumed)
# T1 construct: also called UCH-L1-His; not shown: polyhistidine tag
# T1 sequence (P09936 whole entry): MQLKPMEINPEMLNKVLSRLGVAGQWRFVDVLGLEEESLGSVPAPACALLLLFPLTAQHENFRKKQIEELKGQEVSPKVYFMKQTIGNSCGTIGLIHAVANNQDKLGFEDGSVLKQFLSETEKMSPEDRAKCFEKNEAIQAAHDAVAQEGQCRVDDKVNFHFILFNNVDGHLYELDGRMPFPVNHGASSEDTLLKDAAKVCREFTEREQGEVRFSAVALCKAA
# test protocol: BLI (Octet QKe); His-tagged UCH-L1 on anti-Penta-HIS sensor, antibody in solution
pKd: −log10 of the molar value.
outcome measure: pKd

{"binder": "UCH-L1-4 (antibody, V domains shown, also called mouse anti-UCH-L1 antibody UCH-L1-4) VH: AVQLQQSGPELVKPGASVKISCKTSGDTFTEHFMNWVKQSHGESLEWIGIINPYTDGTNYDQKFKDKATLTVDKSSSTAYMELRSLTSEDSAVYYCARWGGDGEGYWGQGTTLTVSS VL: DIVMTQAAPSVSVTPGESVSISCRSSKSLLHSNGNTYLYWFLKRPGQSPQLLIYRMSNLASGVPDRVSGSGSGTAFTLRISRVEAEDVGIYYCMQHLEYPLTFGAGTKLELK", "outcome measure": "pKd", "reading qualifier": "=", "reported": 10.43}
{"binder": "UCH-L1-8 (antibody, V domains shown, also called mouse anti-UCH-L1 antibody UCH-L1-8) VH: EVQLQQSGPDLVKPGTSVKISCKTSGYTFTEYTMHWVKQSHGRSLEWIGGLNPNNGRTSYNQKFKGKATLTVDKSSSIAYMELRSLTSEDSAVYYCARRLGRGFYFDYWGQGTTLTVSS VL: DIVLTQSPASLAVSLGQRATISCRASESVDSYGNNLMHWYQQKPGQSPKLLIYRASNLESGIPGRFSGRGSRTDFTLTINPVEADDVATYYCQQSNGDPYTFGGGTKLEIK", "outcome measure": "pKd", "reading qualifier": "=", "reported": 10.32}
{"binder": "UCH-L1-3 (antibody, V domains shown, also called mouse anti-UCH-L1 antibody UCH-L1-3) VH: QVQLQQPGSELVRPGASVKLSCRASGYTFTSYWIHWVKQRHGQGLEWIGNIYPGSGITNYDEKFKTKGTLTVDTSSSTVYMHLISLTSEDSAVYYCTREDYWGQGTTLTVSS VL: DVLMTQTPLSLPVSLGDQASISCRSSQSIVHSNGNTYLEWYLQKPGQSPKLLIYKVSNRFSGVPDRFSGSGSGTDFTLKISGVETEDLGVYYCFQGSHVPFTFGGGTKLEIK", "outcome measure": "pKd", "reading qualifier": "=", "reported": 9.44}
{"binder": "UCH-L1-6 (antibody, V domains shown, also called mouse anti-UCH-L1 antibody UCH-L1-6) VH: EVQLQQSGPELVKPGASVKISCKTSGYTFTEYTMHWVKQSHGKSLDWIGGINPNNGRTSYNQKFKGKATLTVDKSSSTAYMDFRSLTSEDSAVYYCARRLGRGFYFDYWGQGTTLTVSS VL: DIVLTQSPASLAVSLGQRATISCRASESVESYGNNLIHWYQQKLGQPPKLLIYLSSNLEPGIPARFSGRGSRTDFTLTINPVEADDVATYYCQQSNGDPYTFGGGTKLEIR", "outcome measure": "pKd", "reading qualifier": ">", "reported": 12.00}
{"binder": "UCH-L1-9 (antibody, V domains shown, also called mouse anti-UCH-L1 antibody UCH-L1-9) VH: EVQLQQSGPELVKPGASVKISCKTSGYTFTEYTMHWVKQSHGKSLDWIGGINPNNGRTSYNQKFKGKATLTVDKSSSTAYMELRSLTSEDSTVYYCARRLGRGFYFDYWGQGTTLTVSS VL: DIVLTQSPASLAVSLGQRATISCRASESVDSYGNNFMHWYQQKPGQPPKLLIYLSSNLESGIPARFSGRGSRTDFTLTINPVEADDVATYYCQQSNGDPYTFGGGTKLEMK", "outcome measure": "pKd", "reading qualifier": "=", "reported": 10.07}
